Assayed target: TYK2 (Homo sapiens, UniProt P29597)
Construct: purchased Carna Biosciences
Sequence (P29597 whole entry): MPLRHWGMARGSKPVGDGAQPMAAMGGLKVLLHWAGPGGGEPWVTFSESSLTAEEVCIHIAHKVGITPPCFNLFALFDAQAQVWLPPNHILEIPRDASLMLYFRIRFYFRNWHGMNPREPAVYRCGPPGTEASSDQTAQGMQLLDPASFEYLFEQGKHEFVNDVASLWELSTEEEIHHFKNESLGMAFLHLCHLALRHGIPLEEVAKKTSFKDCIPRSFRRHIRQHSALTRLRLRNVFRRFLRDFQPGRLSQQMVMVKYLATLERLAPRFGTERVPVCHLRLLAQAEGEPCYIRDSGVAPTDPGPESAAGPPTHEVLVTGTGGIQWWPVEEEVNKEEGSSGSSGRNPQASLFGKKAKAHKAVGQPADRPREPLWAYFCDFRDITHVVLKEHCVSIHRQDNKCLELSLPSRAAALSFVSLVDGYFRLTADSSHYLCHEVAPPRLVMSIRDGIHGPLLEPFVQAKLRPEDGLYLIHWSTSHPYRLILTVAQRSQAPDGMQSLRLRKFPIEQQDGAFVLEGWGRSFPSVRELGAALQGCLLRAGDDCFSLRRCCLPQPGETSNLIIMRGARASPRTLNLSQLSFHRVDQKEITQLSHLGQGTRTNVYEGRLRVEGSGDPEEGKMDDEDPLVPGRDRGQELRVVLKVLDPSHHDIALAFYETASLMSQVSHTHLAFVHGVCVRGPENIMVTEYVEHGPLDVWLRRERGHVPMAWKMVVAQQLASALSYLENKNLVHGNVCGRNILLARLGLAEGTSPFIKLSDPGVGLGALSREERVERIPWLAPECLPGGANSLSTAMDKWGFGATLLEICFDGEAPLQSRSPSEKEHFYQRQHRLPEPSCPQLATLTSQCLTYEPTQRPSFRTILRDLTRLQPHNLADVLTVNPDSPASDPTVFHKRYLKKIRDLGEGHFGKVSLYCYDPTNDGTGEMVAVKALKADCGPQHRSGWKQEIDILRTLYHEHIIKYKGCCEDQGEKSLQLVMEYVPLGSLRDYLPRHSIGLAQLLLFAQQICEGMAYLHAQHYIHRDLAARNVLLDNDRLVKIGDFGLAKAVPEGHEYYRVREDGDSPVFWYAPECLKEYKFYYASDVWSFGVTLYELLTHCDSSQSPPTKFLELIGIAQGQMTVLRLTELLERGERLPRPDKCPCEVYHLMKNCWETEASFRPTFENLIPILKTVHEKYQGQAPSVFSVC
Test: TYK2 microfluidic kinase assay (Caliper EZ Reader II, FAM labeled peptide substrate)
Assay type: biochemical
Experimental context: IC50 TYK2 ([…]) (1 mM ATP), TYK2 […], 1 mM ATP
Description: Compounds were tested against JAK1, JAK2, JAK2V617F and TYK2. Assay Formats: JAK activity was determined in the reaction buffer 50 mM HEPES, 0.01% Brij35, 10 mM MgCl2, 2 mM DTT by a microfluidic assay. The phosphorylation of a FAM labeled peptide substrate was monitored in the Caliper EZ Reader II (Perkin Elmer). The assay condition for each batch of enzyme (Carna Biosciences) was optimized to obtain 10% conversion rate of peptide substrate. […]
// reported IC50 per item
Hi! Could you send only the number? It should be in nM, unit omitted.

Read the entry CC[C@@H](C#N)NC(=O)c1ccc(-c2nc(Nc3cnn(C(C)C(F)(F)F)c3)ncc2C)cc1 (stereo partly shown) [Example 195] and write its reported IC50. 5.42

Read the entry Cc1cnc(Nc2cnn(C3CC3)c2)nc1-c1ccc(C(=O)NCC#N)nc1 [Example 83] and write its reported IC50. 45.2

Read the entry Cc1cnc(Nc2cnn(CCO)c2)nc1-c1ccc(C(=O)N[C@H](C#N)C(C)C)cc1 [Example 191] and write its reported IC50. 53.9

Read the entry Cc1cnc(Nc2cnn(C3CCN(C)C(=O)C3)c2)nc1-c1ccc(C(=O)NCC#N)cc1 (stereo not shown) [Example 66] and write its reported IC50. 70

Read the entry Cc1cnc(Nc2cnn([C@H]3C[C@@H](C)N[C@@H](C)C3)c2)nc1-c1ccc(C(=O)N[C@@H](C)C#N)cc1 [Example 232] and write its reported IC50. 2.97

Next:
Read the entry CC[C@@H](C#N)NC(=O)c1ccc(-c2nc(Nc3cnn(C4CCCNC4)c3)ncc2C)cc1 (stereo partly shown) [Example 210] and write its reported IC50. 88.2

Read the entry Cc1cnc(Nc2cnn(C3CCN(C)CC3)c2)nc1-c1ccc(C(=O)N[C@H](C#N)C(C)C)cc1 [Example 174] and write its reported IC50. 1.33

Read the entry CC[C@@H](C#N)NC(=O)c1ccc(-c2nc(Nc3cnn(CCC#N)c3)ncc2Cl)cc1 [Example 190] and write its reported IC50. 45

Read the entry Cc1cnc(Nc2cnn(C)c2)nc1-c1ccc(C(=O)N[C@@H](C)C#N)cc1 [Example 18] and write its reported IC50. 49.6

Read the entry CC[C@@H](C#N)NC(=O)c1ccc(-c2nc(Nc3cnn(C4CC(C)(C)OC(C)(C)C4)c3)ncc2Cl)cc1 [Example 182] and write its reported IC50. 0.58

Read the entry C[C@@H](C#N)NC(=O)c1ccc(-c2nc(Nc3cnn(CCC#N)c3)ncc2Cl)cc1 [Example 189] and write its reported IC50. 85
